meta.source: patent US9579313B2

// reported EC50 per item
# Target Or Test System: HBV C150Bo capsid protein (HBV CA protein) (Hepatitis B virus genotype D subtype adw, UniProt P03147, C107A/C48A/C61A/R150C)
# Construct: amino acids 1-150, C49A, C61A, C107A, 150C
# Sequence (P03147 1-150 C48A/C61A/C107A/R150C): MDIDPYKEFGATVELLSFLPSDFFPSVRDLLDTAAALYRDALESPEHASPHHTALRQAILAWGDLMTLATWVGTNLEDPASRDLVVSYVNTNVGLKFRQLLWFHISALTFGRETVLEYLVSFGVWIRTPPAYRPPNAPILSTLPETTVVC
# Assay Protocol: HBV assembly assay (fluorescence quenching in vitro capsid assembly)

O=C(Nc1cc(F)c(F)c(F)c1)c1cc(S(=O)(=O)N2CCC(O)CC2)cc2[nH]ccc12: < 10 µM

Query string: Give reported EC50 value for O=C(Nc1ccc(F)c(F)c1)c1cc(S(=O)(=O)N2CC(O)C(F)C2)cc2[nH]ccc12 (stereo not shown)
Result string: < 10 µM

Query string: Answer with the recorded EC50 of NC1CCN(S(=O)(=O)c2cc(C(=O)Nc3cc(F)c(F)c(F)c3)c3cc[nH]c3c2)CC1 only.
Result string: < 10 µM

Query string: Determine its reported EC50: COCC1(O)CCN(S(=O)(=O)c2cc(C(=O)Nc3ccc(F)c(F)c3)c3cc[nH]c3c2)CC1
Result string: < 10 µM

Query string: Determine from records and report EC50 for O=C(Nc1ccc(F)c(Cl)c1)c1cc(S(=O)(=O)N2CC(O)C(F)C2)cc2[nH]ccc12 (stereo not shown)
Result string: < 10 µM

Query string: Please list EC50 recorded for the compound O=C(Nc1cc(F)c(F)c(F)c1)c1cc(S(=O)(=O)N2CC(O)C2)cc2[nH]ccc12
Result string: < 10 µM

Query string: Please supply the value of reported EC50 for the item O=C(Nc1ccc(F)c(F)c1)c1cc(S(=O)(=O)N2CC(O)C2)cc2[nH]ccc12
Result string: < 10 µM
